Values from ChEMBL document CHEMBL2176868

target.under.test: Cannabinoid receptor 2 (Homo sapiens, UniProt P34972)
Sequence (P34972 whole entry): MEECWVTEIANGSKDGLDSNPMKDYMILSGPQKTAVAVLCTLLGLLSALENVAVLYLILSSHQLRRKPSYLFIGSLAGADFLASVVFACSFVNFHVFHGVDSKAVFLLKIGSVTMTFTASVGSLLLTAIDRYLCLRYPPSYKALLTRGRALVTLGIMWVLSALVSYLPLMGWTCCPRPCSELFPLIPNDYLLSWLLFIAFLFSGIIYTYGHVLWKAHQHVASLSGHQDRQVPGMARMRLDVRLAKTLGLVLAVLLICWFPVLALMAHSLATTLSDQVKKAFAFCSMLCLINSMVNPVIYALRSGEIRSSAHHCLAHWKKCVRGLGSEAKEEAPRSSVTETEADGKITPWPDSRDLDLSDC
assay.name: Agonist activity at human CB2 receptor expressed in CHO cells assessed as inhibition of forskolin-stimulated cAMP accumulation using [3H]-cAMP at 1 uM after 5 mins by liquid scintillation counter relative to CP55940
Format: functional, cell-based
measurement.label: inhibition (%)
Please reply with the bare figure in % and do not write the unit itself.

Use these answered entries as a reference point.
structure.smiles	val
CCCCCc1cc(OC)c2cc(Cc3cccc(C)c3)c(=O)oc2c1	50
CCCCCc1cc(OC)c2cc(Cc3ccccc3C)c(=O)oc2c1	58
CCCCCc1cc(OC)c2cc(Cc3cccc(Cl)c3)c(=O)oc2c1	40
CCCCC1(c2cc(OC)c3cc(Cc4ccccc4OC)c(=O)oc3c2)CCCC1	3
CCCCCc1cc(O)c2cc(Cc3cccc(C)c3)c(=O)oc2c1	10
COc1cccc(Cc2cc3c(OC)cc(Br)cc3oc2=O)c1	0
CCCCCc1cc(OC)c2cc(Cc3ccccc3Cl)c(=O)oc2c1	47
CCCCCc1cc(O)c2cc(Cc3cccc(Cl)c3)c(=O)oc2c1	0
CCCCC1(c2cc(O)c3cc(Cc4ccccc4O)c(=O)oc3c2)CCCCC1	76
CCCCCCC(C)(C)c1cc(O)c2cc(Cc3ccccc3)c(=O)oc2c1	32

Could you now look at the following compound, please?
Quick one: inhibition for "COc1cccc(Cc2cc3c(OC)cc(CBr)cc3oc2=O)c1" ?
0

----------
target.under.test: Cannabinoid receptor 1 (Homo sapiens)
Sequence (P21554 whole entry): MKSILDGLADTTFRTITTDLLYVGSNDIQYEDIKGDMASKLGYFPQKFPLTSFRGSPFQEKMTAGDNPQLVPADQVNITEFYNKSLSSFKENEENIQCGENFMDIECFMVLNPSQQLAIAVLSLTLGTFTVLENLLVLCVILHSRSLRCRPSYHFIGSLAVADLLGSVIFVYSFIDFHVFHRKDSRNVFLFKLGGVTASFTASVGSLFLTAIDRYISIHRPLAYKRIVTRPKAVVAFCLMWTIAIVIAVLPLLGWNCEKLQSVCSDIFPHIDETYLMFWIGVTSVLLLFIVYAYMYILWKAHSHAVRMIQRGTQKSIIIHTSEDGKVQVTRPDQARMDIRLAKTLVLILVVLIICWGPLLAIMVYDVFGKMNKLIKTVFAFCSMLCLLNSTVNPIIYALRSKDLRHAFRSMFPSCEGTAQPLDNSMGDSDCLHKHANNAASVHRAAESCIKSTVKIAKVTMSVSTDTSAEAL
assay.name: biochemical
Assay type: cell-based, CHO
measurement.label: pKi
Would you please state pKi, meaning minus log10 of the concentration in mol/L, as a bare number?

structure.smiles	pKi
CCCCCCCC(C)(C)c1cc(OC)c2cc(Cc3ccccc3OC)c(=O)oc2c1	5.00

Could you now look at the following compound, please?
Quick one: pKi for "CCCCCCC(C)(C)c1cc(O)c2cc(Cc3ccccc3O)c(=O)oc2c1" ?
6.61

----------
// values below are log10 of Ki; system is Cannabinoid receptor 2 (Homo sapiens)
Scale type: logarithmic (base 10). Underlying Ki unit: µM.

Use these answered entries as a reference point.
structure.smiles	val
CCCCCCCC(C)(C)c1cc(O)c2cc(Cc3ccccc3O)c(=O)oc2c1	-0.53
COc1cccc(Cc2cc3c(OC)cc(CBr)cc3oc2=O)c1	1.12
CCCCCCC(C)(C)c1cc(OC)c2cc(Cc3ccccc3)c(=O)oc2c1	0.61
CCCCCCC(C)(C)c1cc(OC)c2cc(Cc3ccccc3OC)c(=O)oc2c1	0.48
CCCCCCCC(C)(C)c1cc(OC)c2cc(Cc3ccccc3OC)c(=O)oc2c1	1.00

Test system Cannabinoid receptor 2 (Homo sapiens); read-out log10 of Ki; what value for "CCCCCc1cc(OC)c2cc(Cc3cccc(OC)c3)c(=O)oc2c1" ?
-0.84

Test system Cannabinoid receptor 2 (Homo sapiens); read-out log10 of Ki; what value for "CCCCCc1cc(O)c2cc(Cc3ccccc3C)c(=O)oc2c1" ?
0.55

Test system Cannabinoid receptor 2 (Homo sapiens); read-out log10 of Ki; what value for "CCCCCc1cc(OC)c2cc(Cc3cccc(Cl)c3)c(=O)oc2c1" ?
-0.46

Test system Cannabinoid receptor 2 (Homo sapiens); read-out log10 of Ki; what value for "CCCCCCC(C)(C)c1cc(O)c2cc(Cc3ccccc3O)c(=O)oc2c1" ?
-0.68

Test system Cannabinoid receptor 2 (Homo sapiens); read-out log10 of Ki; what value for "CCCCCc1cc(OC)c2cc(Cc3ccccc3OC)c(=O)oc2c1" ?
-1.31
